settings: in methanol, 332.55 K
test readout: solubility (mole fraction)
// print number alone

Value lookup for solubility (mole fraction); key = C[C@@H]1OC(=O)[C@H](C)OC1=O
0.282
